Data credit: patent US10947242B2

Biological target: Human recombinant PDE10A (hPDE10A) (Homo sapiens, UniProt Q9Y233)
Construct: His tag (inferred from metal chelate purification); made in house; host or cells: Sf9 insect cells (baculovirus)
Sequence (Q9Y233 267-1055): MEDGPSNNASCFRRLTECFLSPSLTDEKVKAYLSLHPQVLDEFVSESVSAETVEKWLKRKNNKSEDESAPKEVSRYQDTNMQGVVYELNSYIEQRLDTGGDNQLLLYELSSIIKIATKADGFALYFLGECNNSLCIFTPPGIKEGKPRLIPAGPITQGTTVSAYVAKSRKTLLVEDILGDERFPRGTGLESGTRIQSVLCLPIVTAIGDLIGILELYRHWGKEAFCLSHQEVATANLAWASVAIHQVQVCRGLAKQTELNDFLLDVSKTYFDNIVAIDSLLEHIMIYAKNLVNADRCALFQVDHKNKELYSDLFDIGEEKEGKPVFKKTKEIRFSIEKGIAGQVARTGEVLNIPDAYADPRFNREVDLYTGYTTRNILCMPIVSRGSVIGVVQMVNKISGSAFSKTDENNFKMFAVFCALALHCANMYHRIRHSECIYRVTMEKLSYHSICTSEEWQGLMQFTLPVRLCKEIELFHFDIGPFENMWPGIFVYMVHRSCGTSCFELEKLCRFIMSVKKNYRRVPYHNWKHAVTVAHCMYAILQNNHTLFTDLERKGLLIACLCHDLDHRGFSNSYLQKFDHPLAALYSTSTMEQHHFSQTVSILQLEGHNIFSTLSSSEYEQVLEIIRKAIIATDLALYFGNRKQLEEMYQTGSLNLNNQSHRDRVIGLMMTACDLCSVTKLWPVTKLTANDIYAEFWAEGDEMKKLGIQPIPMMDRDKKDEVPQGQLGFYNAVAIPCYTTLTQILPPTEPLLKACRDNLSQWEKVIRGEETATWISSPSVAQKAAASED
Assay: In vitro assay PDE10A, human clone (SPA, 3H-cAMP hydrolysis)
Assay type: biochemical
Conditions: human clone by default (no (r) mark); read-out: hPDE10A2 or rPDE10A2 Emax
Procedure: Rat recombinant PDE10A (rPDE10A2) was expressed in Sf9 cells using a recombinant rPDE10A baculovirus construct. […] Tested compounds were dissolved and diluted in 100% DMSO to a concentration 100 fold of the final concentration in the assay. […] After sedimentation of the beads during 30 minutes the radioactivity was measured in a Perkin Elmer Topcount scintillation counter and results were expressed as cpm. […]
observed.property: Emax (%)
Could you give me the number in %? Just the number is fine.

Field: example entries. Status: answers known.
Cc1nc2cc(C(=O)N3[C@H]4CC[C@H](c5cc(C(F)F)nc6ncnn56)[C@@H]3CC4)ccc2o1 | 74
C[C@@H]1CCN(C(=O)c2cncnc2)C[C@H]1c1cc(C(F)F)nc2ncnn12 | 45
C[C@@H]1CCN(C(=O)c2nccnc2Cl)C[C@H]1c1cc(C(F)F)nc2ncnn12 | 51
Cc1cnc(C(=O)N2[C@H]3CC[C@H](c4cc(C(F)F)nc5ncnn45)[C@@H]2CC3)cc1C | 33
O=C(c1ccc2cnccc2c1)N1[C@H]2CC[C@H](c3cc(C(F)F)nc4ncnn34)[C@@H]1CC2 | 91

**Q:** Query (compound): "COc1ccc(C(=O)N2[C@H]3CC[C@H](c4cc(C(F)F)nc5ncnn45)[C@@H]2CC3)cc1OC" ; field requested: Emax
**A:** 85

**Q:** What does the data say about its Emax? Entry: "O=C(c1ccc(OC(F)(F)F)c(F)c1)N1[C@H]2CC[C@H](c3cc(C(F)F)nc4ncnn34)[C@@H]1CC2"
**A:** 77

**Q:** Sample "O=C(c1ccc2nccnc2c1)N1[C@H]2CC[C@H](c3cc(C(F)F)nc4ncnn34)[C@@H]1CC2" — what was its Emax?
**A:** 88

**Q:** Form field: reported Emax of "C[C@@H]1CCN(C(=O)c2ccc(O)nn2)C[C@H]1c1cc(C(F)F)nc2ncnn12"
**A:** 58

**Q:** Entry "COc1cc(C(=O)N2CC[C@@H](C)[C@H](c3cc(C)nc4ncnn34)C2)c(F)cn1" : reported Emax = ?
**A:** 98

**Q:** For the compound shown here, "O=C(c1cnc2c(F)cccc2c1)N1[C@H]2CC[C@H](c3cc(C(F)F)nc4ncnn34)[C@@H]1CC2" , give the reported Emax.
**A:** 86
